test system: CDK3; details: concentration: 1 μM, replicates: in singlicate; n = 1;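 note: KINOMEscan kinase panel screen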
MEASUREMENT_LABEL: %Inh (%)
Report the value in % with no unit label.

[in] # %Inh lookup, item CNC(=O)c1ccccc1Nc1nc(Nc2ccc(N3CCOCC3)cc2)ncc1Cl.Cl [GSK1576028]
[out] 31

[in] Another molecule to look at: O=C(Nc1cccc(Oc2ccc3nc(NC(=O)C4CC4)cn3n2)c1)c1ccccc1C(F)(F)F
[out] 21

[in] What about this molecule? COc1cccc(-c2ccc3c(NC(=O)C4CC4)n[nH]c3n2)c1 [SB-710903]
[out] 41

[in] Subsequent entry: Cc1ccc(C(=O)N2CC[C@@H](O)C2)cc1-n1c(C)cc(OCc2ccc(F)cc2F)c(Br)c1=O
[out] 0
